ASSAY PROCEDURE: self-splicing fitness, log relative to wild type (ln ratio); higher = more splicing; Tetrahymena group I intron in knt gene, E. coli kanamycin selection, DiMSum; sequences stand for … in CUCUCU…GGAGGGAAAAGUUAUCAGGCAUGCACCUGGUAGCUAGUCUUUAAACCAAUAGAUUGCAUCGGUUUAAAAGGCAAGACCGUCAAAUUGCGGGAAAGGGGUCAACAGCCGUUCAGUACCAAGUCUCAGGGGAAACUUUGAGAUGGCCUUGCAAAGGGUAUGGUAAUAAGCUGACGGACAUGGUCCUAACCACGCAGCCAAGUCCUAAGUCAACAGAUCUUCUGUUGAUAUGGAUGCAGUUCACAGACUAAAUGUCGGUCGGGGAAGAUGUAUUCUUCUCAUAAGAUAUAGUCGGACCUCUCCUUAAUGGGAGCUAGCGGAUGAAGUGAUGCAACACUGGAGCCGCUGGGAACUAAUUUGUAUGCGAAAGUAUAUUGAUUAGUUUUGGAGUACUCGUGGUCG;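 note: selection with 25 µg/mL kanamycin versus none on LB agar overnight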
CONDITION NOTES: 30 °C
RECORDED ENDPOINT: self-splicing fitness (ln)

In [3]: df
Out[3]:
       monomer_sequence           recorded_endpoint  reported_measurement
0  UCGCAGCAAUAUUACGACAA  self-splicing fitness (ln)                 -1.14
1  CCAUAGCAAUAUUACGACAG  self-splicing fitness (ln)                 -1.16

Quick one: self-splicing fitness (ln) of UCGUAGCAAUAUUACGUAUU ?
-3.9
